- METHOD_SUMMARY: Solubility assay: saturation shake-flask method
- Assay type: physicochemical
- CONDITION_SUMMARY: buffer solution pH 6.8, aqueous buffer, thermodynamic from solid; pH 6.8 buffer, 37 °C, shake-flask
READOUT_KIND: solubility at 8 h (mg/mL)
Give bare numbers, in mg/mL.

# get_value(readout='solubility at 8 h', item= CC[C@H](C)C(=O)O[C@H]1C[C@H](O)C=C2C=C[C@H](C)[C@H](CC[C@@H](O)C[C@@H](O)CC(=O)O)[C@H]21 )
480

---

- METHOD_SUMMARY: Solubility assay: saturation shake-flask method
- Type: physicochemical
- CONDITION_SUMMARY: buffer solution pH 4.5, aqueous buffer, thermodynamic from solid; pH 4.5 buffer, 37 °C, shake-flask
READOUT_KIND: solubility at 8 h (mg/mL)
Answers are plain numbers, in mg/mL.

# get_value(readout='solubility at 8 h', item= CC[C@H](C)C(=O)O[C@H]1C[C@H](O)C=C2C=C[C@H](C)[C@H](CC[C@@H](O)C[C@@H](O)CC(=O)O)[C@H]21 )
504

---

- METHOD_SUMMARY: Solubility assay: saturation shake-flask method
- Format: physicochemical
- CONDITION_SUMMARY: buffer solution pH 1.2, aqueous buffer, thermodynamic from solid; pH 1.2 buffer, 37 °C, shake-flask
READOUT_KIND: solubility at 8 h (mg/mL)
One number for each entry, in mg/mL.

# get_value(readout='solubility at 8 h', item= CC[C@H](C)C(=O)O[C@H]1C[C@H](O)C=C2C=C[C@H](C)[C@H](CC[C@@H](O)C[C@@H](O)CC(=O)O)[C@H]21 )
440

src = paper PMC6956045
